This listing pairs binders with measured percentage of Lag3 positive cells.
assay.target: T1, cynomolgus Lag3 on cells (HEK293F cells transiently transfected with cyno-LAG-3); activated cynomolgus PBMC/T … (cynomolgus)
T1 construct: whole, on cells
assay.procedure: flow cytometry on CD3/CD28-activated cynomolgus PBMC, antibody at 10 ug/ml
Method: Thus, cynomolgus peripheral blood mononuclear cells (PBMC) were prepared from fresh cynomolgus blood and were then activated by CD3/CD28 pre-treatment (1 μg/ml) for 2-3 days. […] After staining, cells were washed two times with PBS/2% FCS and analyzed on a FACS Fortessa (BD).
State just the number; it will be interpreted in %.

BMS-986016 (antibody, V domains shown) VH: QVQLQQWGAGLLKPSETLSLTCAVYGGSFSDYYWNWIRQPPGKGLEWIGEINHRGSTNSNPSLKSRVTLSLDTSKNQFSLKLRSVTAADTAVYYCAFGYSDYEYNWFDPWGQGTLVTVSS VL: EIVLTQSPATLSLSPGERATLSCRASQSISSYLAWYQQKPGQAPRLLIYDASNRATGIPARFSGSGSGTDFTLTISSLEPEDFAVYYCQQRSNWPLTFGQGTNLEIK ... 18.6

Reported percentage of Lag3 positive cells for aLAG3(0411) (antibody, V domains shown, also called aLAG3 (411)) VH: EVHLLESGGGLVQPGGSLRLSCAASGFIVDDYTMNWVRQAPGKGLEWVSVISWDGGATYYADSVKGRFTISRDDFKNTLYLQMNSLRAEDTAVYYCAKGLTDDTLYGSDYWGQGTLVTVSS VL: DIQMTQSPSSLSASVGDRVTITCRASQSIVSYLNWYQQKPGKAPKLLIYASSSLQSGVPSRFSGSGSGTDFTLTISSLQPEDFATYYCQQTYSTPLTFGGGTKVEIK was 46.6
